- Test system: Hs578T complex spheroid growth, percent test/control
- Experimental Protocol: Anticancer human tumor Hs578T cell line growth inhibition [AhR];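 note: luminescent viability signal as a proxy for spheroid growth; spheroids exposed to agents for one week after three days of growth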
- Run Conditions: second compound 10 µM; first compound 3.16 µM; stronger effect = lower value
Field: class. Source value: viability, T/C. Ranges: class 0 = under 6%, class 1 = from 6% up to 50%, class 2 = 50% and over

Compound	Cat
CC1COCCN1c1cc(C2(S(C)(=N)=O)CC2)nc(-c2ccnc3[nH]ccc23)n1 (stereo unspecified) + Cc1cncc(-c2nc(NCCc3c[nH]c4ccccc34)c3ncn(C(C)C)c3n2)c1	class 1
O=C(c1cc(Cc2n[nH]c(=O)c3ccccc23)ccc1F)N1CCN(C(=O)C2CC2)CC1 + Cc1cncc(-c2nc(NCCc3c[nH]c4ccccc34)c3ncn(C(C)C)c3n2)c1	class 0
O=C(c1cc(Cc2n[nH]c(=O)c3ccccc23)ccc1F)N1CCN(C(=O)C2CC2)CC1 + Cc1ccccc1N=Nc1ccc(NC(=O)c2ccnn2C)c(C)c1	class 2
COc1cc(C2c3cc4c(cc3C(OC3OC5COC(C)OC5C(O)C3O)C3COC(=O)C23)OCO4)cc(OC)c1O (stereo unspecified) + Cc1ccccc1N=Nc1ccc(NC(=O)c2ccnn2C)c(C)c1	class 2
Nc1ccccc1NC(=O)c1ccc(CNC(=O)OCc2cccnc2)cc1 + CC(CO)NC(=O)c1cc(-c2ccc(Cl)cc2)nn(-c2cnn(C)c2)c1=O	class 1
COc1cccc2c1C(=O)c1c(O)c3c(c(O)c1C2=O)CC(O)(C(=O)CO)CC3OC1CC(N)C(O)C(C)O1 (stereo unspecified) + Cc1cncc(-c2nc(NCCc3c[nH]c4ccccc34)c3ncn(C(C)C)c3n2)c1	class 0
Nc1ccn(C2OC(CO)C(O)C2(F)F)c(=O)n1 (stereo unspecified) + Cc1cncc(-c2nc(NCCc3c[nH]c4ccccc34)c3ncn(C(C)C)c3n2)c1	class 0
COc1ccc([C@@H](O)c2cc(-c3ncnc4cc(N5CCOCC5)ccc34)c(F)cc2Cl)nn1 + Cc1cncc(-c2nc(NCCc3c[nH]c4ccccc34)c3ncn(C(C)C)c3n2)c1	class 1
O=C(c1cc(Cc2n[nH]c(=O)c3ccccc23)ccc1F)N1CCN(C(=O)C2CC2)CC1 + CC(CO)NC(=O)c1cc(-c2ccc(Cl)cc2)nn(-c2cnn(C)c2)c1=O	class 2
COc1cccc2c1C(=O)c1c(O)c3c(c(O)c1C2=O)CC(O)(C(=O)CO)CC3OC1CC(N)C(O)C(C)O1 (stereo unspecified) + CC(CO)NC(=O)c1cc(-c2ccc(Cl)cc2)nn(-c2cnn(C)c2)c1=O	class 0
CC1COCCN1c1cc(C2(S(C)(=N)=O)CC2)nc(-c2ccnc3[nH]ccc23)n1 (stereo unspecified) + Cc1ccccc1N=Nc1ccc(NC(=O)c2ccnn2C)c(C)c1	class 2
Nc1ccn(C2OC(CO)C(O)C2(F)F)c(=O)n1 (stereo unspecified) + Cc1ccccc1N=Nc1ccc(NC(=O)c2ccnn2C)c(C)c1	class 1
CC(C)c1c(-c2ccccc2)nc2c(C#N)c[nH]n2c1=O + CC(CO)NC(=O)c1cc(-c2ccc(Cl)cc2)nn(-c2cnn(C)c2)c1=O	class 2
COc1cc(C2c3cc4c(cc3C(OC3OC5COC(C)OC5C(O)C3O)C3COC(=O)C23)OCO4)cc(OC)c1O (stereo unspecified) + Cc1cncc(-c2nc(NCCc3c[nH]c4ccccc34)c3ncn(C(C)C)c3n2)c1	class 0
COc1cccc2c1C(=O)c1c(O)c3c(c(O)c1C2=O)CC(O)(C(=O)CO)CC3OC1CC(N)C(O)C(C)O1 (stereo unspecified) + Cc1ccccc1N=Nc1ccc(NC(=O)c2ccnn2C)c(C)c1	class 0

###

- Test system: Hs578T complex spheroid growth, percent test/control
- Experimental Protocol: Anticancer human tumor Hs578T cell line growth inhibition [AhR];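 note: luminescent viability signal as a proxy for spheroid growth; spheroids exposed to agents for one week after three days of growth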
- Run Conditions: second compound 0.316 µM; first compound 0.316 µM; stronger effect = lower value
Reported viability, T/C values for a set of molecules
Measurement Kind: viability, T/C (%)

Molecule	Quantity Unit	Recorded Measurement
CC1(C)CCC(CN2CCN(c3ccc(C(=O)NS(=O)(=O)c4ccc(NCC5CCOCC5)c([N+](=O)[O-])c4)c(Oc4cnc5[nH]ccc5c4)c3)CC2)=C(c2ccc(Cl)cc2)C1 + Cc1cncc(-c2nc(NCCc3c[nH]c4ccccc34)c3ncn(C(C)C)c3n2)c1	%	112
Nc1ccn(C2OC(CO)C(O)C2(F)F)c(=O)n1 (stereo unspecified) + Cc1ccccc1N=Nc1ccc(NC(=O)c2ccnn2C)c(C)c1	%	53.9
COc1cc(Nc2ncc3c(n2)-c2ccc(Cl)cc2C(c2c(F)cccc2OC)=NC3)ccc1C(=O)O + Cc1ccccc1N=Nc1ccc(NC(=O)c2ccnn2C)c(C)c1	%	91.8
Nc1ccccc1NC(=O)c1ccc(CNC(=O)OCc2cccnc2)cc1 + Cc1cncc(-c2nc(NCCc3c[nH]c4ccccc34)c3ncn(C(C)C)c3n2)c1	%	116
O=C(C=Cc1cccc(S(=O)(=O)Nc2ccccc2)c1)NO + CC(CO)NC(=O)c1cc(-c2ccc(Cl)cc2)nn(-c2cnn(C)c2)c1=O	%	103
COc1cc(C2c3cc4c(cc3C(OC3OC5COC(C)OC5C(O)C3O)C3COC(=O)C23)OCO4)cc(OC)c1O (stereo unspecified) + Cc1cncc(-c2nc(NCCc3c[nH]c4ccccc34)c3ncn(C(C)C)c3n2)c1	%	94.3

###

Listing: pIC50 of selected molecules
- System: Hs578T complex spheroid growth, percent test/control
- Experimental Protocol: Anticancer human tumor Hs578T cell line growth inhibition [AhR];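 note: luminescent viability signal as a proxy for spheroid growth; spheroids exposed to agents for one week after three days of growth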
- Run Conditions: curve of first compound; second compound 1 µM
pIC50: −log10 of the molar value.

Molecule	pIC50
Nc1ncn(C2CC(O)C(CO)S2)c(=O)n1 (stereo not drawn) + Cc1cncc(-c2nc(NCCc3c[nH]c4ccccc34)c3ncn(C(C)C)c3n2)c1	< 6.52
CCN(c1cc(-c2ccc(CN3CCOCC3)cc2)cc(C(=O)NCc2c(C)cc(C)[nH]c2=O)c1C)C1CCOCC1 + Cc1cncc(-c2nc(NCCc3c[nH]c4ccccc34)c3ncn(C(C)C)c3n2)c1	< 5.52
O=C(c1cc(Cc2n[nH]c(=O)c3ccccc23)ccc1F)N1CCN(C(=O)C2CC2)CC1 + Cc1ccccc1N=Nc1ccc(NC(=O)c2ccnn2C)c(C)c1	< 5.00
